Attribution: patent US20100029609A1

Molecular target: UniProt P21453
Sequence (P21453 whole entry): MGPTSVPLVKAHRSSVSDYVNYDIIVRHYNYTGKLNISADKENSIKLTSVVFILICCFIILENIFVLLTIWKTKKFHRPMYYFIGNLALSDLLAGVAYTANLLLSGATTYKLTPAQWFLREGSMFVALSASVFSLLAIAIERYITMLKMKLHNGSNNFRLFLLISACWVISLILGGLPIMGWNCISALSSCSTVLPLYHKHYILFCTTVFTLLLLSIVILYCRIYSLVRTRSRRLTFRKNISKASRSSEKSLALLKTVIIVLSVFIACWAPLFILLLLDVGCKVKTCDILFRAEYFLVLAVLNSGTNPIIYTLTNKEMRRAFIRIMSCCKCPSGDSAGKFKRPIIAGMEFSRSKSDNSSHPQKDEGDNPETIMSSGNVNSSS
Test: Human S1P Receptor Calcium FLIPR Antagonist Assay, HeLa Gα16 S1P1
Details: HeLa-S1P1/Gα16 cells; antagonism of Ca2+ signal of probing agonist GNF-AC-1 at EC80
readout-kind: IC50 (nM)

I: Cc1cc(S(=O)(=O)Nc2cccc(-c3ccc(C(=O)N[C@H](C(=O)O)C(C)(C)O)c(C)c3)c2)c(C)cc1Cl [Example 61]
II: Cc1cc(S(=O)(=O)Nc2cccc(-c3cc(C)c(C(=O)N[C@H](C)C(=O)O)c(C)c3)c2)c(C)cc1Cl [Example 134]
III: Cc1cc(S(=O)(=O)Nc2cccc(-c3cc(C)c(C(=O)NC4(C(=O)O)CN(C)C4)c(C)c3)c2)c(C)cc1Cl [Example 150]
IV: Cc1cc(S(=O)(=O)Nc2cccc(-c3ccc(C(=O)N[C@@H](CO)C(=O)O)c(C)c3)c2)c(C)cc1Cl [Example 45]
QUERY: Arrange the 4 entries by IC50 so the values rise. Your reply should list the labels following the order given in the request.
RESULT: I, IV, III, II
(I: 0.4 nM, IV: 1.1 nM, III: 1.6 nM, II: 7 nM)
